In this section, each of the compounds is paired with its reported growth inhibition.
assay: Restrictive medium S. cerevisiae growth inhibition, OD615, pilot screen of yeast lifespan reduction project, restrictive growth control (AID 706); details: OD615, 48 h, at 10 µM, active compounds read high;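 further: modified DeaD lifespan yeast strain shifted to restrictive glucose medium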
Output spec: scalar in %, unitless text.

Field: example entries. Status: answers known.
COMPOUND: O=C(CSc1nnc(-c2ccccc2Cl)o1)N1CCCCC1
UNIT SYMBOL: %
ASSAY RESULT: 7.85

COMPOUND: Cc1cc(C)cc(-n2cc3c(=O)n(C)c(=O)n(C)c3c2)c1
UNIT SYMBOL: %
ASSAY RESULT: -0.345

COMPOUND: CCOC(=O)Nc1ccc2c(c1)N(C(=O)N(CC)CC)c1ccccc1CC2
UNIT SYMBOL: %
ASSAY RESULT: -26.2

COMPOUND: O=C(Nc1ccc2c(c1)OCO2)c1cc(C2CC2)on1
UNIT SYMBOL: %
ASSAY RESULT: -18

Consider the additional compound presented here.
Annotate the compound `CN(Cc1ccccc1)S(=O)(=O)c1ccc2[nH]c(=O)oc2c1` with its measured growth inhibition. -30.6

====

test: inhibitors of the yeast RAM network, pilot screen, dse1pr::URA3 reporter, 5-FOA selection (AID 869);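 further: 0% = DMSO wells with no growth and 100% = 10 µM 1-NA-PP1 with full growth; RAM network block rescues cells from 5-FOA so hits raise OD615 growth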; settings: S. cerevisiae dse1pr::URA3 5-FOA growth, OD615, 2 d; at 10 µM; active compounds read high; strain carries analog-sensitive mutant Cbk1 kinase
PROPERTY MEASURED: inhibition (%)
Output spec: scalar in %, unitless text.

COMPOUND: CC1Cc2nc(SCC(=O)N3CCOCC3)n(-c3ccccc3)c(=O)c2S1 (configuration not stated)
inhibition, %: 0.16
--
COMPOUND: CCN(CC)C(=O)c1sc(NC(=O)c2ccoc2C)c(C(=O)OC)c1C
inhibition, %: 1.33
--
COMPOUND: Cc1c(NC(=O)C2CCN(S(=O)(=O)c3ccccc3)CC2)c(=O)n(-c2ccccc2)n1C
inhibition, %: 1.45
--
COMPOUND: O=S(=O)(c1ccccc1)N1CCN(C2CCN(Cc3ccccc3)CC2)CC1
inhibition, %: 0.155
--
COMPOUND: CCOC(=O)c1cc(-c2nnc(-c3ccc(Cl)cc3)o2)c(C)nc1C
inhibition, %: 2.19
--
COMPOUND: CCCOc1ccccc1C1NC(=O)NC(C)=C1C(=O)OCCOC(C)C (configuration not stated)
inhibition, %: 0.325

Annotate the compound `COc1ccc(OC)c(-n2c(SCC(=O)Nc3cc(C)on3)nnc2-c2c[nH]c3ccccc23)c1` with its measured inhibition. 1.31

====

assay: growth suppression of beta-catenin knockout HCT116, pilot screen, human colon tumor cells (AID 823); settings: CellTiter-Glo, 60 h, at 10 µM, active compounds read low;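 further: 0% = wells killed by 20 µM Hyamine and 100% = untreated DMSO cell wells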
Records with an inconclusive call do not appear.
PROPERTY MEASURED: viability (%)
Output spec: scalar in %, unitless text.

Field: example entries. Status: answers known.
MOLECULE: CCOC(=O)CC(=O)Nc1ccc(Br)cc1C(=O)O
viability [%]: 101
//
MOLECULE: COc1ccc(-c2cc(C(=O)O)c3ccccc3n2)c(OC)c1
viability [%]: 82.2
//
MOLECULE: COC(=O)c1nnn(Cc2ccccc2)c1N
viability [%]: 103
//
MOLECULE: O=c1[nH]c2c(s1)C=Nc1ccccc1N2
viability [%]: 89.9

Annotate the molecule `COc1ccc(C(=O)Oc2ccc3c(c2)OCO3)cc1OC` with its measured viability. 85.9

Annotate the molecule `CCS(=O)(=O)n1nc(-c2ccccc2)cc1N` with its measured viability. 98.7

====

experiment: viability gain of MRP-1-high H69AR cells under doxorubicin, pilot screen, MRP-1 activator project, CellTiter-Glo, duplicate (AID 807); settings: H69AR viability with doxorubicin, CellTiter-Glo luminescence; at 10 µM; active compounds read high;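 further: compound pretreatment 18-22 h then 72 h combined with doxorubicin; 0% = doxorubicin alone and 100% = vehicle without doxorubicin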
In this section, each of the compounds is paired with its reported viability increase.
Output spec: scalar in %, unitless text.

COMPOUND: O=C(C1CC1)N1CCc2cc(Br)cc(S(=O)(=O)NCc3ccccn3)c21
UNIT SYMBOL: %
viability increase: -1.89
--
COMPOUND: CC1=C(C(=O)N(C)C)C(c2cccc(Cl)c2)NC(=O)N1 (stereo not given)
UNIT SYMBOL: %
viability increase: 0.18
--
COMPOUND: CCOC(=O)c1c(NC(=O)c2cc(C3CC3)on2)sc2c1CCCC2
UNIT SYMBOL: %
viability increase: -1.3
--
COMPOUND: CCc1ccc(N2C(=O)c3sc4nnc(C)c(=O)n4c3C2=O)cc1
UNIT SYMBOL: %
viability increase: -1
--
COMPOUND: O=C(c1cc(-c2cccc(O)c2)on1)N1CCOCC1
UNIT SYMBOL: %
viability increase: 0.64
--
COMPOUND: CC1(C)CC(=O)C=C(NCCN2CCN(C(=O)Nc3ccc(Cl)c(Cl)c3)CC2)C1
UNIT SYMBOL: %
viability increase: -3.81

Annotate the compound CCOC(=O)C1=C(C)Nc2nc(C)nn2C1c1ccc(OC)c(OC)c1 (stereo not given) with its measured viability increase. -3.45

Annotate the compound COC(=O)C1=C(C)OC(N)=C(C#N)C1c1ccccc1F (stereo not given) with its measured viability increase. -3.38

Annotate the compound CCOC(=O)C1CCCN(C(=O)c2cn(CC(C)C)c(=O)c3cc(OC)c(OC)cc23)C1 (stereo not given) with its measured viability increase. -3.43

Annotate the compound OC(CN1C2=NCCCN2c2ccccc21)c1ccc(Cl)cc1 (stereo not given) with its measured viability increase. -4.02

Annotate the compound `CCC(=O)c1ccc(CCCCCC(=O)O)s1` with its measured viability increase. -0.1

Annotate the compound `CCOC(=O)CSc1ccc2nnc(-c3ccccc3)n2n1` with its measured viability increase. -0.81

Annotate the compound O=C(CN1C(=O)c2ccccc2S1(=O)=O)NC1CC2CCC1C2 (stereo not given) with its measured viability increase. -1.68

Annotate the compound `CCN1CCN(CC(=O)NC2CCCCC2)C(=O)C1=O` with its measured viability increase. -0.83

Annotate the compound O=C1NCCCC1C(=O)N1CCN(C(c2ccccc2)c2ccccc2)CC1 (stereo not given) with its measured viability increase. 1

Annotate the compound `O=C(CSc1ncnc2nc[nH]c12)N1CCOCC1` with its measured viability increase. -0.96

Annotate the compound CCC1CC(C)(C(=O)Nc2ccc(S(N)(=O)=O)cc2)OC1=O (stereo not given) with its measured viability increase. 1.12

Annotate the compound `O=C(CSc1nc2ccccc2c(=O)[nH]1)N1CCCCC1` with its measured viability increase. -2.69

Annotate the compound CCC(C)NC(=O)C(Cc1ccccc1)n1cccc1 (stereo not given) with its measured viability increase. 0.42

Annotate the compound `Cc1ccc(Cl)cc1NC(=O)COC(=O)C1CCCC1` with its measured viability increase. -0.05

====

assay: OD615 S. cerevisiae growth inhibition, permissive medium, pilot counter-assay, permissive growth control for S. cerevisiae lifespan shortening project (AID 705); conditions: OD615, 24 h, at 10 µM, active compounds read high
PROPERTY MEASURED: growth inhibition (%)
Output spec: scalar in %, unitless text.

Field: example entries. Status: answers known.
MOLECULE: COC(=O)C1=C(O)CSC1=Nc1cccc(C(F)(F)F)c1
growth inhibition, %: -1.75
--
MOLECULE: CN(C)S(=O)(=O)c1ccc(NC(=O)C2COc3ccccc3O2)cc1 (stereo not drawn)
growth inhibition, %: -9.66
--
MOLECULE: Cc1cc(=O)oc2c(N)c(O)ccc12
growth inhibition, %: -4.57
--
MOLECULE: CCOC(=O)Cc1csc(NC(=O)CN(C)S(=O)(=O)c2cccc3cccnc23)n1
growth inhibition, %: -11.1

Annotate the molecule CCC(O)CNc1nc(SC)nc2sc3c(c12)CCN(C)C3 (stereo not drawn) with its measured growth inhibition. -7.7

Annotate the molecule CCCC(=N)C1=C(O)CC(CC(C)SCC)CC1=O (stereo not drawn) with its measured growth inhibition. -5.42

Annotate the molecule `CCc1c(C)nc2[nH]nc(-c3ccccc3)n2c1=O` with its measured growth inhibition. -20.2

Annotate the molecule CCOC1CCCCC1NS(=O)(=O)c1ccc(Cl)cc1 (stereo not drawn) with its measured growth inhibition. -3.5

====

assay: inhibitors of the yeast RAM network, pilot screen, dse1pr::URA3 reporter, 5-FOA selection (AID 869);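 further: 0% = DMSO wells with no growth and 100% = 10 µM 1-NA-PP1 with full growth; RAM network block rescues cells from 5-FOA so hits raise OD615 growth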; conditions: S. cerevisiae dse1pr::URA3 5-FOA growth, OD615, 2 d; at 10 µM; active compounds read high; strain carries analog-sensitive mutant Cbk1 kinase
In this section, each of the molecules is paired with its reported inhibition.
Output spec: scalar in %, unitless text.

MOLECULE: COc1ccccc1CNC(=O)c1ccc(CNc2c(N3CCCC3)c(=O)c2=O)cc1
inhibition / %: 0.46

MOLECULE: COc1cc(S(=O)(=O)NCc2ccc3c(c2)OCO3)ccc1Cl
inhibition / %: 1.69

MOLECULE: CCCN1C(=O)c2cc(C(=O)NCCc3cccc(C)c3)ccc2C1O (stereo unspecified)
inhibition / %: 0.08

MOLECULE: O=C(Cn1c2c(c(-c3ccccc3)cc1=O)CCCC2)N1CCCCCC1
inhibition / %: 1.49

MOLECULE: COC(=O)c1cc(-c2ccc3c(c2)OCO3)nc2ccccc12
inhibition / %: 3.49

MOLECULE: Cc1cc(C)n(S(=O)(=O)c2ccc(Cl)c(Cl)c2Cl)n1
inhibition / %: 1.17

MOLECULE: Cc1cc(C(=O)NCc2ccc3c(c2)OCO3)n(-c2ccccc2)n1
inhibition / %: 0.985

MOLECULE: CCOC(=O)CNC(=O)CSc1nnc(Cn2c(=O)sc3ccccc32)n1C
inhibition / %: 0.83

MOLECULE: Cc1nc(C)c(C(=O)Nc2ccccc2)s1
inhibition / %: 0.68

MOLECULE: Cc1ccc(C(C)C)c(OCc2nc(-c3nonc3N)no2)c1
inhibition / %: 1.71

Annotate the molecule COc1ccc(N2CCC(CNC(=O)Nc3ccc(C)c(C)c3)C2)cc1 (stereo unspecified) with its measured inhibition. 0.77

Annotate the molecule `Cn1c(=O)oc2cc(S(=O)(=O)N3CCC(N4CCCCC4)CC3)ccc21` with its measured inhibition. -0.02

Annotate the molecule Cc1ccc(NC(=O)C2C3C=CC4(CN(Cc5cccnc5)C(=O)C24)O3)cc1 (stereo unspecified) with its measured inhibition. 0.77

Annotate the molecule CC(C)n1c(C(O)c2ccccc2)nc2ccccc21 (stereo unspecified) with its measured inhibition. 1.4

Annotate the molecule CCOC(=O)c1[nH]c2c(c1C)C(=O)CC(c1ccc(F)cc1)C2 (stereo unspecified) with its measured inhibition. 0.11

Annotate the molecule `CCCCOc1ccc(CN2CCC(O)CC2)cc1` with its measured inhibition. 1.06

Annotate the molecule `CCSc1nnc2c(n1)[nH]c1c(C)cccc12` with its measured inhibition. 4

Annotate the molecule `Cc1noc(C(=O)NCc2cccnc2)c1Cl` with its measured inhibition. 0.865

Annotate the molecule `Cc1cc(N=CC2=C(O)CC(C)(C)CC2=O)no1` with its measured inhibition. 1.94

Annotate the molecule `COc1ccc(NC(=O)c2ccc3c(c2)n(C)c(=O)n3C)cc1` with its measured inhibition. 1.06
